# Test system: Polygonum convolvulus (POLCO)
# experiment_summary: Post-emergence herbicidal action against POLCO
# Format: in vivo
# assay_context: dosage 320 g/ha
Reported Post-emergence action against POLCO in % by item:
# value in %; strip the unit string

Fill in the blank: the reported Post-emergence action against POLCO in % of C=CCNC(=O)COc1nn(-c2ncccc2F)c(-c2ccc(F)nc2)c1Br is ____.
80

Fill in the blank: the reported Post-emergence action against POLCO in % of Cc1ncccc1-n1nc(OCC(=O)OCC2CCCO2)c(Br)c1-c1cncc(F)c1 (stereo not shown) is ____.
80

Fill in the blank: the reported Post-emergence action against POLCO in % of COC(=O)[C@@H](C)Oc1nn(-c2nc(F)ccc2F)c(-c2cncc(F)c2)c1C1CC1 is ____.
90

With those in mind, consider the next compound.
Fill in the blank: the reported Post-emergence action against POLCO in % of COC(=O)CCOC(=O)COc1nn(-c2ccccn2)c(-c2ccc(F)nc2)c1C1CC1(F)F (stereo not shown) is ____.
80
